Give inhibition for every item shown.
# PROTOCOL: inhibitors of PAF-induced NFkB signaling in CF airway cells, dose response, cell-based, uHTS hits, panel, cytotoxicity readout (AID 624344)
# DETAILS: CF bronchial epithelial cells, PAF-induced NFkB reporter inhibition, with PAF, run 2; at 79 µM (top of the series) unless noted
One number for each entry, in %.

Worked set:
>  <MOLECULE>
CC1C(c2ccccc2)OCCN1C(=S)Nc1ccc(S(=O)(=O)N2CCCCC2)cc1 (stereo not given)

>  <RESULT_NUMBER>
106

$$$$
>  <MOLECULE>
Cc1cnc(NC(=O)CCCc2nc3ccccc3s2)s1

>  <RESULT_NUMBER>
114

$$$$

State recorded inhibition for all listed molecules.
1. COc1ccc(-n2nc(C(=O)NCC(=O)Nc3cc(OC)c(OC)c(OC)c3)c3ccccc3c2=O)cc1Cl
2. CC(=O)Nc1ccc(-c2ccnc3c2CC(C(=O)NCc2ccccc2)O3)cc1 (stereo not given)
3. COc1ccc(COC(=O)C2=C(C)NC(=O)NC2c2ccc(OC)cc2)cc1 (stereo not given)
4. c1cc2[nH]snc2c2nc(C3CC3)nc12

1. 95.1
2. -72.7
3. 78
4. 118

State recorded inhibition for all listed molecules.
1. O=C(CCC1COc2ccccc2O1)Nc1ccc(Cl)cn1 (stereo not given)
2. O=C(/C=C/c1cccc([N+](=O)[O-])c1)NC(=S)Nc1ccc(CN2CCOCC2)cc1
3. CC(=O)c1ccc(-c2cnc3c(NC=O)cc(-c4ccc(C(=O)NC5CC5)cc4)cn23)cc1
4. COc1cc(/C=C2\SC(=O)N(CCNC(=O)c3sc4cc(F)ccc4c3Cl)C2=O)cc(OC)c1OC

112
112
104
30.8
